The origin of these recorded values is patent US20140348836A1.

Measured Maximum Fold Increase of CD80 on dendritic cells, listed per entry for reference.
MEASUREMENT TARGET: human CD40 on cells (human, UniProt P25942 21-277)
Sequence (P25942 21-277): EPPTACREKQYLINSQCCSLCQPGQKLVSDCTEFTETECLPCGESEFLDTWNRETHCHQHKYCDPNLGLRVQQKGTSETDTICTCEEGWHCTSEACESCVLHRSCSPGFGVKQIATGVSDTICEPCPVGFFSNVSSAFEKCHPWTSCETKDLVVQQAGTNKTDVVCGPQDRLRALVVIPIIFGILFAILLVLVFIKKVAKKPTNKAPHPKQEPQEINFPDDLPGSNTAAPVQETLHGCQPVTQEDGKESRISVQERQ
TEST PROTOCOL: cell-based or functional assay
PARAMETER MEASURED: Maximum Fold Increase of CD80 on dendritic cells (fold)

[
  {
    "BINDER": "Antibody clone C4 (antibody, human IgG1, lambda, V domains shown, Same VL changes as A4; VH carries S63T; also called C4 ANTI-CD40 ANTIBODY) VH: EVQLLESGGGLVQPGGSLRLSCAASGFTFSTYGMHWVRQAPGKGLEWLSYISGGSSYIFYADTVRGRFTISRDNSENALYLQMNSLRAEDTAVYYCARILRGGSGMDLWGQGTLVTVSS VL: QSVLTQPPSASGTPGQRVTISCTGSTSNIGAGYKVYWYQQLPGTAPKLLIYGNINRPSGVPDRFSGSKSGTSASLAISGLRSEDEADYYCAAWDDSLSGLVFGGGTKLTVLG",
    "MEASURED VALUE": 609
  },
  {
    "BINDER": "Antibody B44 (antibody, V domains shown, Parent agonistic anti-CD40 antibody from the n-CoDeR library; Run alongside the IgG clones as 'B44 antibody' and detected with anti-human Ig on RAMOS cells; also called B44 antibody; original anti-CD40 antibody) VH: EVQLLESGGGLVQPGGSLRLSCAASGFTFSTYGMHWVRQAPGKGLEWLSYISGGSSYIFYADSVRGRFTISRDNSENALYLQMNSLRAEDTAVYYCARILRGGSGMDLWGQGTLVTVSS VL: QSVLTQPPSASGTPGQRVTISCTGSSSNIGAGYDVYWYQQLPGTAPKLLIYGNINRPSGVPDRFSGSKSGTSASLAISGLRSEDEADYYCAAWDDSLSGLVFGGGTKLTVLG",
    "MEASURED VALUE": 584
  },
  {
    "BINDER": "Antibody clone A4 (antibody, human IgG1, lambda, V domains shown, Tested as purified antibody; full chains are assembled here from VH/VL plus these; also called A4 ANTI-CD40 ANTIBODY) VH: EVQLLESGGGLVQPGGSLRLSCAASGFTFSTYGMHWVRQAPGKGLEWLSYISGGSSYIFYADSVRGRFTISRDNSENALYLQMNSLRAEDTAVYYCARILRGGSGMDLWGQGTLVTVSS VL: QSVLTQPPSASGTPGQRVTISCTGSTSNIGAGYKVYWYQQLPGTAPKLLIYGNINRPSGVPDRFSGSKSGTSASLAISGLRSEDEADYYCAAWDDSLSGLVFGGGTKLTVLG",
    "MEASURED VALUE": 599
  }
]
